- Assay system: T1, TBD-11 (HC R98A)
- T1 construct: Fab; also called HC R98A mutant
- T1 sequence (VH, as listed by the source, chain 1 of 2): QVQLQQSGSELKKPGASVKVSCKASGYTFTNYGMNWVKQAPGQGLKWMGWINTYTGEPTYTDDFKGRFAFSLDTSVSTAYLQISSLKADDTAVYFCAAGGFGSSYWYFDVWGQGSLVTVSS
- T1 sequence (VL, as listed by the source, chain 2 of 2): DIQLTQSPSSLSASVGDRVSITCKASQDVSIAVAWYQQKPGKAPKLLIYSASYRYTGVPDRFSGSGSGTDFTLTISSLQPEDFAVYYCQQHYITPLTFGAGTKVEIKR
- Experiment notes: competition ELISA, peptide vs Fab binding to captured biotin-TROP2
pIC50: −log10 of the molar value. Where no end group is shown, it is not given here.
Measurement type: pIC50

VDFCSIYHWPVCYV (cysteine pairing not given here; also: biotinylated, site not given here) [Peptide-38]; 5.35
EDFCYWYQWPICSD (cysteine pairing not given here; also: biotinylated, site not given here) [Peptide-35]; 4.66
IDFCMLYNWPICAG (cysteine pairing not given here; also: biotinylated, site not given here) [Peptide-3]; 5.57
PDFCYMYGWPICDS (cysteine pairing not given here; also: biotinylated, site not given here) [Peptide-32]; 5.00

P. VDFCYLYSWPICTK (cysteine pairing not given here; also: biotinylated, site not given here) [Peptide-40]
Q. IDFCAMYHWPICDT (cysteine pairing not given here; also: biotinylated, site not given here) [Peptide-42]
Thinking about recorded pIC50 values, which is higher, P or Q ? Lab log: write the label of the selected item as the result.
Q
(Q: 5.92, P: 4.84)
